# testedTarget: T1, Peptide A (human PAR-2), N-terminal biotinylated (Human, N-terminal biotin via G4S linker)
# T1 construct: also called Peptide A N-Term
# T1 peptide: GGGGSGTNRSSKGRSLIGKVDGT
# assayDetails: peptide ELISA titration
For each entry below, report its EC50 value.

-- ask Dear colleague, I am looking for the recorded EC50 of the following binder: H4H591N (antibody, human IgG4, V domains shown, also called H2M591N variable regions) VH: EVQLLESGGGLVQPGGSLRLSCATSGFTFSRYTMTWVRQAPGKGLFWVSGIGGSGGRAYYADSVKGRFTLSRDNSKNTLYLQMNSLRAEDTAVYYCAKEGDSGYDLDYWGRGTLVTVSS VL: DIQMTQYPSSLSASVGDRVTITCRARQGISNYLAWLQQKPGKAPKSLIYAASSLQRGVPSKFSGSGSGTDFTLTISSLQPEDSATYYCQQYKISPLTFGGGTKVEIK
-- reply 0.022 nM

-- ask For the binder shown here, H4H579P (antibody, human IgG4, V domains shown, also called H1H579P variable regions) VH: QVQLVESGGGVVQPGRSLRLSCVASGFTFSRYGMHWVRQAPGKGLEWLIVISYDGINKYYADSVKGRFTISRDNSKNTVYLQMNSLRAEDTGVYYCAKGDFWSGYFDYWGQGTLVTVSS VL: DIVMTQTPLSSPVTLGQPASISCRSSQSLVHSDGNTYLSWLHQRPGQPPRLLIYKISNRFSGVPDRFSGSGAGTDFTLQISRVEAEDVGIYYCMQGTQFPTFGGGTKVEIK , give the reported EC50.
-- reply 0.077 nM

-- ask Which EC50 is reported for this binder? H4H585P (antibody, human IgG4, V domains shown, also called H1H585P variable regions) VH: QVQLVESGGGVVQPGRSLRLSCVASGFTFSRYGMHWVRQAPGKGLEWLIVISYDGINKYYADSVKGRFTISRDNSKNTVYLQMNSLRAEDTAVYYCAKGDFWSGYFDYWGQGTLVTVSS VL: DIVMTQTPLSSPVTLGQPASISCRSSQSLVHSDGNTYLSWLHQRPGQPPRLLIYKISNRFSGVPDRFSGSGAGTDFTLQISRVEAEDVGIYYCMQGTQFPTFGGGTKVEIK
-- reply 0.026 nM

-- ask Which EC50 is reported for this binder? H4H581P (antibody, human IgG4, V domains shown, also called mAb H4H581P; H1H581P variable regions) VH: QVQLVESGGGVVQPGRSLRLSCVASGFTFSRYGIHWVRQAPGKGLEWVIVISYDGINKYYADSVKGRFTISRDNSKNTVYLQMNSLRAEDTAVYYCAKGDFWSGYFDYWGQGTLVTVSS VL: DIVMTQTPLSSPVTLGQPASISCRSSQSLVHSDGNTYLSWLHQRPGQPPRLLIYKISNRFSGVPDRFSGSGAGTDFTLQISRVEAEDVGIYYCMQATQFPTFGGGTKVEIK
-- reply 0.02 nM

-- ask Value lookup for EC50; key = H4H584P (antibody, human IgG4, V domains shown, also called H1H584P variable regions) VH: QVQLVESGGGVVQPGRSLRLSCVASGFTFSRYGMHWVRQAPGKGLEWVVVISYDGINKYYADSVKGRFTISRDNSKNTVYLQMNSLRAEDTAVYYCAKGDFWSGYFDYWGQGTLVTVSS VL: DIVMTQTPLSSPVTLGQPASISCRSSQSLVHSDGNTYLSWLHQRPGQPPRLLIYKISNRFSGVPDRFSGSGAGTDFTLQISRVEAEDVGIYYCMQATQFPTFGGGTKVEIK
-- reply 0.019 nM
